The molecules listed here are annotated with their GFP response vs DMSO.
Assay: yeast TOR pathway CIT2-GFP reporter retest – flow cytometry, third cherry pick, single plex, confirmation (AID 504340);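 further: median GFP fluorescence over all cells with no mother versus daughter split; sample signal as a ratio to the plate DMSO mean so 100% equals DMSO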
Settings: S. cerevisiae CIT2-GFP strain, 3 h, at 10 µM, stronger effect = higher value
The source made the active and inactive calls.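 How the source made its calls: active means GFP response above 150% of the DMSO control; inconclusive means Under 70 cell events counted for a yeast strain; inactive means the rest.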

Worked set:
Cc1ccc(-c2cc(C(F)F)nc(S(C)(=O)=O)n2)cc1 :: 91.2% (inactive)
COc1ccc(Nc2nc(NN)nc(C)c2[N+](=O)[O-])cc1 :: 94.5% (inactive)
OCc1ccnc2c(O)cccc12 :: 94.5% (inactive)

Inquiry: Find the recorded GFP response vs DMSO belonging to COC(=O)COc1c(Cl)cc(Cl)c2ccc(C)nc12 and report it.
Reply text: 106% (inactive)

Inquiry: Find the recorded GFP response vs DMSO belonging to Cc1cccc(Nc2cc(=O)[nH]c(=O)[nH]2)c1C and report it.
Reply text: 96.1% (inactive)

Inquiry: Find the recorded GFP response vs DMSO belonging to COc1ccc(N/C(C)=C/C(=O)c2ccccc2)cc1 and report it.
Reply text: 94.5% (inactive)
